Recorded values, source the supplement of paper PMC10338343.

test system: MILI (PIWIL2) piRISC loaded with L1MC piRNA (26 nt); assay: pre-steady-state target cleavage rate (min^-1); guide: L1MC piRNA 5'p-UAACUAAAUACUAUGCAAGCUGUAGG; higher = faster piRNA-guided slicing of the target; details: auxiliary factor: none (no GTSF1);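 further: 1 nM active piRISC with 0.1 nM target library at 33 °C single turnover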
Decision: pre-steady-state target cleavage rate compared against 0.006; not below it gives condition met, below it gives condition not met.

Use the examples below as a reference point.
UCCUCCUACAGCUUGCAUAGUCUUUAGUUA = condition not met
UCCUGGAUGAGCUUGCAUUGUAUAUAGUUA = condition not met
UCCUGGAAGAGCUUGCAAAGUAUUUAGUUA = condition met
UCCUGGAACAGCUUGCAUAGUAUUUAGUGUA = condition not met
UCCUGGUACAACUUGCAUAGUAUUUAGUUA = condition met

Evaluate UCCUGGAUCACCUUGCAAAGUAUUUAGUUA : pre-steady-state target cleavage rate at minimum 0.006? condition not met

Evaluate UCCUGCAUGAGCUUGCAUAGUAUUUAGUUA : pre-steady-state target cleavage rate at minimum 0.006? condition met

Evaluate UCCUCCUACAGCGUUGCAUAGUAUUUAGUUA : pre-steady-state target cleavage rate at minimum 0.006? condition met

###

tested on: MILI (PIWIL2) piRISC loaded with L1MC piRNA (26 nt); assay: pre-steady-state target cleavage rate (min^-1); guide: L1MC piRNA 5'p-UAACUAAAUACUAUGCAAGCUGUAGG; higher = faster piRNA-guided slicing of the target; settings: auxiliary factor: 500 nM mouse GTSF1;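 further: 1 nM active piRISC with 0.1 nM target library at 33 °C single turnover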
observedProperty: pre-steady-state target cleavage rate
Answer using only a numeral; do not append any unit.

UCCUGGUACAGGUUGCUUAGUAUUUAGUUA = 0.328

get_value(item= UCCUGGAUGAGCUUGCAUAGUAUUUAGUA , readout=pre-steady-state target cleavage rate) returns 0.223

get_value(item= UCCUGGUACUGCUUGCAUAGUAUUUACAAA , readout=pre-steady-state target cleavage rate) returns 0.00977

get_value(item= UCCUGGAUGUCGAUGGCAUAGUAUUUAGUUA , readout=pre-steady-state target cleavage rate) returns 0.0677

###

tested on: MILI (PIWIL2) piRISC loaded with L1MC piRNA (26 nt); assay: pre-steady-state target cleavage rate (min^-1); guide: L1MC piRNA 5'p-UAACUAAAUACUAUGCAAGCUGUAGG; higher = faster piRNA-guided slicing of the target; settings: auxiliary factor: 500 nM mouse GTSF1;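 further: 1 nM active piRISC with 0.1 nM target library at 33 °C single turnover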
As shown below, each of these sequences has a reported pre-steady-state target cleavage rate value.
Answer using only a numeral; do not append any unit.

Below, 2 sequences whose answers are already recorded.
UCCUGGAUGUCCUUGCAUAGUAUUGUAGUUA = 0.102
UCCUGGAUGUGCUUGCUAUGUAUUUAGUUA = 0.00774

get_value(item= UCCUGCUACAGGUUGCAUAGUAUUUACUUA , readout=pre-steady-state target cleavage rate) returns 0.0231

###

test system: MILI (PIWIL2) piRISC loaded with L1MC piRNA (26 nt); test: pre-steady-state target cleavage rate (min^-1); guide: L1MC piRNA 5'p-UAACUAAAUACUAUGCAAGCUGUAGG; higher = faster piRNA-guided slicing of the target; conditions: auxiliary factor: 500 nM mouse GTSF1;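 further: 1 nM active piRISC with 0.1 nM target library at 33 °C single turnover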
Decision: pre-steady-state target cleavage rate compared against 0.09; not below it gives condition met, below it gives condition not met.

Use the examples below as a reference point.
UCCUGGAUGAGCUUGCAAAGUAUUUAGAUA = condition met
UCCUGGAUCAGCUUGCAUACUAUUUACAAA = condition not met
UCCUGGAACAGCUUGCUUUGUAUUUAGUUA = condition met
UCCUGGAUCAGCUUGCAUAGUAUUUAGUAA = condition met
UCCUGGAUUAGCUUGCAUAGUAUUUAGUUA = condition met
UCCUGCUAGUGCUUGCAUAGUAUUUAGUUA = condition met

Evaluate UCCUGGAUGUGCUUGCAUAGUAUUAAGUUA : pre-steady-state target cleavage rate at minimum 0.09? condition met

Evaluate UCCUCCUACAGCUUGCAAAGUAUUUACUUA : pre-steady-state target cleavage rate at minimum 0.09? condition not met

###

system: MILI (PIWIL2) piRISC loaded with L1MC piRNA (26 nt); assay: pre-steady-state target cleavage rate (min^-1); guide: L1MC piRNA 5'p-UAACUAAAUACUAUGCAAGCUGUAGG; higher = faster piRNA-guided slicing of the target; details: auxiliary factor: 500 nM mouse GTSF1;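 further: 1 nM active piRISC with 0.1 nM target library at 33 °C single turnover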
observedProperty: pre-steady-state target cleavage rate
Answer using only a numeral; do not append any unit.

Below, 2 sequences whose answers are already recorded.
UCCUGGAUCAGCUUGCAUAGUAUUUAGUUG [g2:g22:cont:t1G] = 0.285
UCCUGGAUGUGCUGGCAUAGUAUUUAGUUA = 0.118

Moving on to the next sequence.
get_value(item= UCCUGGAACAUGCUUGCAUAGUAUUUAGUUA , readout=pre-steady-state target cleavage rate) returns 0.184

###

system: MILI (PIWIL2) piRISC loaded with L1MC piRNA (26 nt); test: pre-steady-state target cleavage rate (min^-1); guide: L1MC piRNA 5'p-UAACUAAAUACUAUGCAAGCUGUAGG; higher = faster piRNA-guided slicing of the target; conditions: auxiliary factor: none (no GTSF1);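 further: 1 nM active piRISC with 0.1 nM target library at 33 °C single turnover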
observedProperty: pre-steady-state target cleavage rate
Answer using only a numeral; do not append any unit.

UCCUGCUUCAGCUUGCAUAGUUUUUAGUUA = 0.00355
UCCUGCUGACAGCUUGCAUAGUAUUUAGUUA = 0.00993

Tested on MILI (PIWIL2) piRISC loaded with L1MC piRNA (26 nt), the item UCCUGCUACAGCUUGCAUAGUAUUUCAGUUA showed pre-steady-state target cleavage rate equal to 0.00409

Tested on MILI (PIWIL2) piRISC loaded with L1MC piRNA (26 nt), the item UCCUGGAUGAGCUAGCAUAGUAUUUAGUAA showed pre-steady-state target cleavage rate equal to 0.00735

Tested on MILI (PIWIL2) piRISC loaded with L1MC piRNA (26 nt), the item UCCUGGAUGUGCAUGCAUAGUAAUUAGUUA showed pre-steady-state target cleavage rate equal to 0.00833

Tested on MILI (PIWIL2) piRISC loaded with L1MC piRNA (26 nt), the item UCCUGCUACAGCGUGCAUAGUAUUUAGUUA showed pre-steady-state target cleavage rate equal to 0.00602

###

system: MILI (PIWIL2) piRISC loaded with piRNA #1 (26 nt); experiment: pre-steady-state target cleavage rate (min^-1); guide: piRNA #1 5'p-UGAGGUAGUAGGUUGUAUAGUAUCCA; higher = faster piRNA-guided slicing of the target; details: auxiliary factor: 500 nM mouse GTSF1;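 further: 1 nM active piRISC with 0.1 nM target library at 33 °C single turnover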
observedProperty: pre-steady-state target cleavage rate
Answer using only a numeral; do not append any unit.

Below, 5 sequences whose answers are already recorded.
GGAGACCUAUCAAAACAACCUACUACCUCA = 0.0082
GGAGACCUUACAAUACUACCUACUACCUCA = 0.114
GGAGACCAUUCUUUACAACCUACUACCUCA = 0.0902
GGAGACGAUACUAUACAAACUACUACCUCA = 0.245
GGAGAGGAUACGAUACAACCUACUACCUCA = 0.166

Moving on to the next sequence.
get_value(item= GGAGACCUAGCUAUACAACCUACUACCUCA , readout=pre-steady-state target cleavage rate) returns 0.0862

###

As shown below, each of these sequences has a reported pre-steady-state target cleavage rate value.
system: MILI (PIWIL2) piRISC loaded with piRNA #1 (26 nt); assay: pre-steady-state target cleavage rate (min^-1); guide: piRNA #1 5'p-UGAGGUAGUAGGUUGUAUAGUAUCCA; higher = faster piRNA-guided slicing of the target; details: auxiliary factor: 500 nM mouse GTSF1;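 further: 1 nM active piRISC with 0.1 nM target library at 33 °C single turnover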
Answer using only a numeral; do not append any unit.

Below, 2 sequences whose answers are already recorded.
GGAGAGGAUACUAUUCAAGCUACUACCUCA = 0.131
GGAGACCUAUGUAUACUACCUACUACCUCA = 0.0517

Moving on to the next sequence.
get_value(item= GGAGUGGAUACUAUACUACCUACUACGUCA , readout=pre-steady-state target cleavage rate) returns 0.0586

###

tested on: MILI (PIWIL2) piRISC loaded with L1MC piRNA (26 nt); assay: pre-steady-state target cleavage rate (min^-1); guide: L1MC piRNA 5'p-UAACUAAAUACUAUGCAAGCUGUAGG; MIWI and MILI are mouse PIWI proteins and EfPiwi is from a freshwater sponge; tags in brackets are library labels; higher = faster piRNA-guided slicing of the target; conditions: auxiliary factor: 500 nM mouse GTSF1;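 further: 1 nM active piRISC with 0.1 nM target library at 33 °C single turnover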
As shown below, each of these sequences has a reported pre-steady-state target cleavage rate value.
Answer using only a numeral; do not append any unit.

Below, 3 sequences whose answers are already recorded.
UCCUGGAUCAGCUUGCAUAGUAUUAGUUA = 0.141
UCCUGGUACAGCUUGCAUAAGUAUUUAGUUA = 0.00838
UCCUGGAUCAGCUUGAUAGUAUUUAGUUA = 0.0575

Tested on MILI (PIWIL2) piRISC loaded with L1MC piRNA (26 nt), the item UCCUGCUACAGUCUUGCAUAGUAUUUAGUUA showed pre-steady-state target cleavage rate equal to 0.222

Tested on MILI (PIWIL2) piRISC loaded with L1MC piRNA (26 nt), the item UCCUGCAUCAGCUUGCAUAGUAUUUAGUUA showed pre-steady-state target cleavage rate equal to 0.322

Tested on MILI (PIWIL2) piRISC loaded with L1MC piRNA (26 nt), the item UCCUGGAUCAGCUUGCCUAGUAUUUAGUUA showed pre-steady-state target cleavage rate equal to 0.234

Tested on MILI (PIWIL2) piRISC loaded with L1MC piRNA (26 nt), the item UCCUGGAUCAUGCUUGCAUAGUAUUUAGUUA showed pre-steady-state target cleavage rate equal to 0.18

Tested on MILI (PIWIL2) piRISC loaded with L1MC piRNA (26 nt), the item UCCUGGAACAGGUUGCAUUGUAUUUAGUUA showed pre-steady-state target cleavage rate equal to 0.157

Tested on MILI (PIWIL2) piRISC loaded with L1MC piRNA (26 nt), the item UCCUGGAUCAGCUUGCAUAGUAAAAAGUUA showed pre-steady-state target cleavage rate equal to 0.102
